Tested on: Rattus norvegicus
EXPERIMENTAL_PROTOCOL: Percent change in Geller-Seifter conflict schedule was determined in Long-Evans rats after (po) administration of gavage of 25 mg/kg
Assay type: functional
Change for assorted compounds
Give the quantity in %, number only.

INSERT INTO measurements (chemical_structure, metric, numeric_result) VALUES
  ('COc1nc2c(N(C)C)ncnc2n1Cc1cccc(N)c1', 'Change', 13),
  ('CN(C)c1ncnc2c1nc(N(C)C)n2Cc1cccc(N)c1', 'Change', -3),
  ('CN(C)c1ncnc2c1nc(Br)n2Cc1cccc(N)c1', 'Change', 2),
  ('CN(C)c1ncnc2c1nc(O)n2Cc1cccc(NC=O)c1', 'Change', -15),
  ('CN(C)c1ncnc2c1nc(Br)n2Cc1cccc(NC=O)c1', 'Change', 9),
  ('CN(C)c1ncnc2c1ncn2Cc1cccc(NC=O)c1', 'Change', -2),
  ('CN(C)c1ncnc2c1nc(N(C)C)n2Cc1cccc(NC=O)c1', 'Change', 0),
  ('CC(=O)Nc1cccc(Cn2c(Br)nc3c(N(C)C)ncnc32)c1', 'Change', 3),
  ('CN(C)c1ncnc2c1nc(Br)n2Cc1cccc(NC(N)=O)c1', 'Change', 9);

Turning now to a further record.
Determine from records and report Change for `CN(C)c1ncnc2c1nc(Cl)n2Cc1cccc(N)c1`
15

Each recorded value in this set is attributed to ChEMBL document CHEMBL1124933.
